Assay Explanation: Stability in cryopreserved hepatocytes, rat
Assay Setup: rat
Description: Mixed-gender human cryopreserved hepatocytes, male Sprague-Dawley rat cryopreserved hepatocytes, and male Beagle dog cryopreserved hepatocytes were purchased from XenoTech. […] An aliquot of the supernatant was then diluted with water and analyzed by LC-MS/MS against calibration standards prepared in a matched matrix. […] All test article samples were analyzed for the dosed prodrugs as well as the drug, treprostinil. […]
I'd appreciate it if you could supply AUC values for the items below.
The response must be a number in µmol·min/L with no trailing unit.

Per the record, CCCCCC(O)CCC1C(O)CC2Cc3c(cccc3OCC(=O)NCC(=O)O)CC21 (stereo not drawn) [VII] has AUC of 10.79

Per the record, CCCCCC(CCC1C(O)CC2Cc3c(cccc3OCC(=O)O)CC21)OCc1oc(=O)oc1C (stereo not drawn) [LI] has AUC of 64.18

Per the record, CCCCCC(CCC1C(O)CC2Cc3c(cccc3OCC(=O)O)CC21)OC(=O)CO (stereo not drawn) [XLIV] has AUC of 43.07
